Test system: Jeko-1 (SOX11+)
Test: Cell viability assay (CellTiter-Blue resazurin reduction)
Assay type: cell-based
Settings: Homo sapiens, JeKo-1, 72 h, JeKo-1 cells, 20 μM compound, normalized to 0.2% DMSO
Readout Kind: viability at 20 µM (%)
Answer format: numeric, % implied, no suffix.

The cases that follow already have their viability at 20 µM on record.
INSERT INTO assay_data (molecule, value) VALUES
  ('c1ccc(COc2cccc(CNc3ccc4cnccc4c3)c2)cc1', 1.12),
  ('CC1Sc2ccc(C(=O)Nc3ccc(OCc4ccccc4C(F)(F)F)cc3)cc2NC1=O (centres unmarked)', 106),
  ('Cc1cccc(NCc2ccc(NC(=O)c3ccc4c(c3)NC(=O)C(C)S4)cc2)c1 (centres unmarked)', 79),
  ('CC1Sc2ccc(C(=O)Nc3ccc(S(=O)(=O)Nc4ccc(F)cc4)cc3)cc2NC1=O (centres unmarked)', 80.1),
  ('CC1Sc2ccc(C(=O)Nc3ccc(S(=O)(=O)N4CCCCCC4)cc3)cc2NC1=O (centres unmarked)', 0.46),
  ('O=C(CCc1c[nH]cn1)Nc1cccc(C(=O)Nc2ccc(S(=O)(=O)Nc3ccccc3)cc2)c1', 90.7),
  ('CC1Sc2ccc(C(=O)Nc3cccc(S(=O)(=O)Nc4ccc(F)cc4)c3)cc2NC1=O (centres unmarked)', 55.6);

Please look at the following molecule next.
For CC1Sc2ccc(C(=O)Nc3cccc(S(=O)(=O)NC4CCNCC4)c3)cc2NC1=O (centres unmarked) , what is its reported viability at 20 µM?
96.6

----------
// reported Kd per item
Target: (His)6-SOX11-DBD protein (Homo sapiens, UniProt P35716)
Construct: Recombinant (His)6-SOX11-DBD protein was immobilized
Sequence (P35716 49-117 limits assumed): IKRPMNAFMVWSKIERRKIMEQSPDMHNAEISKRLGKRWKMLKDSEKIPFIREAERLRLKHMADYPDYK
Assay: Surface Plasmon Resonance (SPR) assay
Conditions: immobilized recombinant (His)6-SOX11-DBD, 25° C., compounds 5-40 μM, mean of three experiments
Answer format: numeric, µM implied, no suffix.

The cases that follow already have their Kd on record.
INSERT INTO measurements (compound, readout_kind, value) VALUES
  ('O=C1CSc2ccc(C(=O)Nc3cccc(S(=O)(=O)N4CCCC4)c3)cc2N1', 'Kd', 38.6),
  ('O=C(Nc1ccc(S(=O)(=O)Nc2ccccc2)cc1)c1ccc2ncccc2c1', 'Kd', 70),
  ('c1ncc2ccc(NCc3ccc(OCC4CCOCC4)cc3)cc2n1', 'Kd', 24.4),
  ('CC1Sc2ccc(C(=O)Nc3ccc(S(=O)(=O)Nc4ccccc4)c(Cl)c3)cc2NC1=O (stereo not drawn)', 'Kd', 4.36),
  ('CCN1C(=O)CSc2ccc(C(=O)Nc3ccc(S(=O)(=O)N4CCCCC4)cc3)cc21', 'Kd', 7.52);

Write down the reported Kd of CC1Sc2ccc(C(=O)Nc3ccc(S(=O)(=O)Nc4ccc(Cl)cc4)cc3)cc2NC1=O (stereo not drawn) , test system: (His)6-SOX11-DBD protein (Homo sapiens, UniProt P35716).
0.861

Write down the reported Kd of O=C(Nc1ccc(OCc2ccccc2)cc1)c1ccc2snnc2c1 , test system: (His)6-SOX11-DBD protein (Homo sapiens, UniProt P35716).
1.65

Write down the reported Kd of Cc1ccc(NS(=O)(=O)c2cccc(NC(=O)c3ccc4c(c3)NC(=O)C(C)S4)c2)cc1 (stereo not drawn) , test system: (His)6-SOX11-DBD protein (Homo sapiens, UniProt P35716).
6.08

Write down the reported Kd of CN(Cc1ccc(NC(=O)c2ccc3c(c2)CCCS3)cc1)c1ccccc1 , test system: (His)6-SOX11-DBD protein (Homo sapiens, UniProt P35716).
11.5

Write down the reported Kd of O=C(Nc1cccc(CNc2ccccc2)c1)c1ccc2c(c1)CCCS2 , test system: (His)6-SOX11-DBD protein (Homo sapiens, UniProt P35716).
7.34

Write down the reported Kd of CC1Sc2ccc(C(=O)Nc3cccc(S(=O)(=O)NC4CCN(C(=O)OC(C)(C)C)CC4)c3)cc2NC1=O (stereo not drawn) , test system: (His)6-SOX11-DBD protein (Homo sapiens, UniProt P35716).
142

Write down the reported Kd of CN1C(=O)COc2ccc(C(=O)Nc3ccc(S(=O)(=O)N4CCCCC4)cc3)cc21 , test system: (His)6-SOX11-DBD protein (Homo sapiens, UniProt P35716).
5.35

Write down the reported Kd of Cc1ccc(C(=O)Nc2ccc(S(=O)(=O)Nc3ccccc3)cc2)cc1NC(=O)Cc1cc(=O)[nH]c(=O)[nH]1 , test system: (His)6-SOX11-DBD protein (Homo sapiens, UniProt P35716).
61.9

Write down the reported Kd of CN(c1ccccc1)S(=O)(=O)c1ccc(NC(=O)c2ccc3c(c2)CCCS3)cc1 , test system: (His)6-SOX11-DBD protein (Homo sapiens, UniProt P35716).
21.7

Write down the reported Kd of CC1Sc2ccc(C(=O)Nc3ccc(S(=O)(=O)Nc4cccnc4)cc3)cc2NC1=O (stereo not drawn) , test system: (His)6-SOX11-DBD protein (Homo sapiens, UniProt P35716).
7.23

Write down the reported Kd of CC1Sc2ccc(C(=O)Nc3ccc(S(=O)(=O)Nc4ccccc4)cc3Cl)cc2NC1=O (stereo not drawn) , test system: (His)6-SOX11-DBD protein (Homo sapiens, UniProt P35716).
3.1

Write down the reported Kd of C[C@@H]1Sc2ccc(C(=O)Nc3ccc(S(=O)(=O)Nc4ccccc4)cc3)cc2NC1=O , test system: (His)6-SOX11-DBD protein (Homo sapiens, UniProt P35716).
31.9

Write down the reported Kd of CC1Sc2ccc(C(=O)Nc3ccc(S(=O)(=O)Nc4ccccn4)cc3)cc2NC1=O (stereo not drawn) , test system: (His)6-SOX11-DBD protein (Homo sapiens, UniProt P35716).
130

Write down the reported Kd of Clc1ccccc1COc1ccc(CNc2ccc3cncnc3c2)cc1 , test system: (His)6-SOX11-DBD protein (Homo sapiens, UniProt P35716).
7.88

Write down the reported Kd of CC1Sc2ccc(C(=O)Nc3ccc(S(=O)(=O)NC4CC4)cc3)cc2NC1=O (stereo not drawn) , test system: (His)6-SOX11-DBD protein (Homo sapiens, UniProt P35716).
18.9

Write down the reported Kd of CN1C(=O)CSc2ccc(C(=O)Nc3ccc(CN4CCCCC4)cc3)cc21 , test system: (His)6-SOX11-DBD protein (Homo sapiens, UniProt P35716).
129

Write down the reported Kd of O=C1Cc2ccc(C(=O)Nc3ccc(S(=O)(=O)Nc4ccccc4)cc3)cc2N1 , test system: (His)6-SOX11-DBD protein (Homo sapiens, UniProt P35716).
20.9

Write down the reported Kd of CN(c1ccccc1)S(=O)(=O)c1ccc(NC(=O)c2ccc3c(c2)CCCS3)cc1C(F)(F)F , test system: (His)6-SOX11-DBD protein (Homo sapiens, UniProt P35716).
5.62

Write down the reported Kd of CC1Sc2ccc(C(=O)Nc3cccc(S(=O)(=O)NC4CCCC4)c3)cc2NC1=O (stereo not drawn) , test system: (His)6-SOX11-DBD protein (Homo sapiens, UniProt P35716).
15.4

Numbers sourced from patent US20230242496A1.
